Target: human recombinant adrenergic α1D receptor (Homo sapiens, UniProt P25100)
Construct: expressed in transfected cells; host or cells: HEK-293
Sequence (P25100 whole entry): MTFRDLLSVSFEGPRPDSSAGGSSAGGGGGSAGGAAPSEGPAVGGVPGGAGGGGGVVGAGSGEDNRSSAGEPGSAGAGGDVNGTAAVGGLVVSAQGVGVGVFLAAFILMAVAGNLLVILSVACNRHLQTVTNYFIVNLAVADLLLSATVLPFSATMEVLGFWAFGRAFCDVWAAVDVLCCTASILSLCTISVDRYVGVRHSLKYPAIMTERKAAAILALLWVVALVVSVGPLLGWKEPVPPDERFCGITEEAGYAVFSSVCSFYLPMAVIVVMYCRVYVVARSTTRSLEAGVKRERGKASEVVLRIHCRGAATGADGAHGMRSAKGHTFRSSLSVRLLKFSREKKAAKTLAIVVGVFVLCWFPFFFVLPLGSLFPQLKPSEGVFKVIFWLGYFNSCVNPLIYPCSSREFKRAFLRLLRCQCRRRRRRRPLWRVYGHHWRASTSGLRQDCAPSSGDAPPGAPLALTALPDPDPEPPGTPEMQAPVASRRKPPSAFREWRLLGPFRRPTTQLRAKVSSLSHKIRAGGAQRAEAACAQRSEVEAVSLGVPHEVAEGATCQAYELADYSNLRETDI
Assay: Radioligand binding, adrenergic α1D ([3H]Prazosin)
Settings: 0.1 μM compound; 0.1 µM
Protocol: Compounds were incubated with 0.6 nM [3H]Prazosin for 60 min at 25° C. Non-specific binding was estimated in the presence of 10 μM phentolamine. Receptor proteins were filtered and washed, the filters were then counted to determine [3H]Prazosin specifically bound. […] Biochemical assay results are presented as the percent inhibition of specific binding in Table B1.
readout kind: Percentage inhibition of ligand binding, Adrenergic α1D (%)

Please review the entries below; each comes with its answer.
Cc1ccc2c(c1)c1c(n2CC(C)c2ccc(C)nc2)CCN(C)C1 (single isomer, unassigned) [289a]: 57
CC(Cn1c2c(c3ccccc31)CN(C)CC2)c1ccc(F)cc1 (single isomer, unassigned) [272b]: 36
CC(Cn1c2c(c3ccccc31)CN(C)CC2)c1ccc(F)cc1 (single isomer, unassigned) [272a]: 12
Cc1ccc2c(c1)c1c(n2CC(C)c2ccc(F)cc2)CCN(C)C1 (single isomer, unassigned) [288a]: 88
COc1ccc(C(C)(O)Cn2c3c(c4cc(C)ccc42)CN(C)CC3)cc1 (centres unmarked) [254b]: 22
Cc1ccc2c(c1)c1c(n2CC(C)c2ccc(F)cc2)CCN(C)C1 (single isomer, unassigned) [288b]: 17

[A] Cc1ccc2c(c1)c1c(n2CC(C)c2ccc(C)nc2)CCN(C)C1 (single isomer, unassigned) [289b]
[B] CN1CCc2c(c3cc(Cl)c(Cl)cc3n2CC(C)(O)c2ccncc2)C1 (centres unmarked) [compound 253]
Request: Among A and B , whose measured Percentage inhibition of ligand binding, Adrenergic α1D is the smaller figure? Answer format: the label of the selected item.
Response: A
